# Test system: MIA (pancreatic cancer) cell genome
# procedureText: ctDNA coculture with MIA cells, whole genome sequencing: genomic insertion sites, transposons at insertion points and SNVs (pancreatic cancer)
# Format: cell-based, human
# settings: TABLE 4; identified genomic insertion site, chromosome

molecule | Location
49 (nucleic acid, listed as Homo sapiens) CTTTAACCTCCTTGTTACGTTTGTCTCTTCCAGAATCGAAGCTGTAAAACTACAAATGGTTCTTCAAATGGAGCCCCAGATGCAGTCCATGACTAAGATCTACCGCGGACCCCTGGACTGGCCTGCTAGCCCATGCTCCAATGTTGATGACATTGAAGGCACCCCTCCCAAGGAAATCTCAACTGCACGACCCCTACTATGCCCCAATTCAGCATGAAGCAGTTAAGAGCGGTTGTCAGCCAACCTCCCCAACAGCACTTGGGTTTTCCTGTTGAGAGGTGGGACTGAGAGA | Chr 6
